Reference source for all entries: patent US20030119895A1

- System: HUV-EC-C cells (human umbilical vein endothelial cells)
- Protocol: HUV-EC-C Assay, VEGF-stimulated [3H] thymidine incorporation
- Type: cell-based
- Reported Conditions: Mitogenesis in Endothelial Cells
Labelling field: enter True if recorded IC50 is less than 10 µM. Enter False if it equals or exceeds that cut-off.

Consider the following illustrative entries.
Molecule | System Name | Assigned Class
COc1ccc(Br)cc1C=C1C(=O)Nc2ccccc21 [SU4796] | HUV-EC-C cells (human umbilical vein endothelial cells) | False
O=C1Nc2ccccc2C1=Cc1ccc(Cl)c(Cl)c1 [SU5201] | HUV-EC-C cells (human umbilical vein endothelial cells) | True
COc1ccccc1C=C1C(=O)Nc2ccccc21 [SU4949, 3-(2-Methoxybenzylidenyl)-2-indolinone] | HUV-EC-C cells (human umbilical vein endothelial cells) | True
O=C1Nc2ccccc2C1=Cc1ccc(I)o1 [SU5409] | HUV-EC-C cells (human umbilical vein endothelial cells) | False
CC(=O)Nc1ccc(C=C2C(=O)Nc3ccccc32)cc1 [SU4944] | HUV-EC-C cells (human umbilical vein endothelial cells) | False
O=C1Nc2ccccc2C1=Cc1ccc(-c2cc(C(F)(F)F)cc(C(F)(F)F)c2)o1 [SU5217] | HUV-EC-C cells (human umbilical vein endothelial cells) | True

Turning now to a further record.
Query: IC50 strictly < 10 µM for this molecule? O=C1Nc2ccccc2C1=Cc1cccn1-c1ccc(Cl)cc1 [SU5462]
Result: True

* * *

Below: a set of entries, each annotated with reported pIC50.
- Tested on: FGFR
- Protocol: FGF ligand-induced BrdU incorporation, mitogenesis in 3T3/EGFR cells
- Format: cell-based
Value format note: pIC50 is -log10 of concentration (mol/L); just state the number.

Item Smiles | pIC50
Cc1cc[nH]c1C=C1C(=O)Nc2ccccc21 | 4.60
CN(C)c1ccc(C=C2C(=O)Nc3ccc(Cl)cc32)cc1 | 5.31
O=C1Nc2ccccc2C1=Cc1ccc(N2CCCC2)cc1 | 4.82
O=C1Nc2ccccc2C1=Cc1ccc(N2CCOCC2)cc1 | 5.00
O=C1Nc2ccccc2C1=Cc1c(Br)cnn1Cc1ccc(Cl)cc1 | 5.05

Query: Kindly indicate its recorded pIC50. Item: "CCOC(=O)CCc1c(C=C2C(=O)Nc3ccccc32)[nH]c(C(=O)OCC)c1CC(=O)OCC"
Result: 4.60

* * *

- System Name: PDGFR (Homo sapiens, UniProt P09619)
- Construct: other: ELISA Assay Results; U1242 cells
- Sequence (P09619 33-1106): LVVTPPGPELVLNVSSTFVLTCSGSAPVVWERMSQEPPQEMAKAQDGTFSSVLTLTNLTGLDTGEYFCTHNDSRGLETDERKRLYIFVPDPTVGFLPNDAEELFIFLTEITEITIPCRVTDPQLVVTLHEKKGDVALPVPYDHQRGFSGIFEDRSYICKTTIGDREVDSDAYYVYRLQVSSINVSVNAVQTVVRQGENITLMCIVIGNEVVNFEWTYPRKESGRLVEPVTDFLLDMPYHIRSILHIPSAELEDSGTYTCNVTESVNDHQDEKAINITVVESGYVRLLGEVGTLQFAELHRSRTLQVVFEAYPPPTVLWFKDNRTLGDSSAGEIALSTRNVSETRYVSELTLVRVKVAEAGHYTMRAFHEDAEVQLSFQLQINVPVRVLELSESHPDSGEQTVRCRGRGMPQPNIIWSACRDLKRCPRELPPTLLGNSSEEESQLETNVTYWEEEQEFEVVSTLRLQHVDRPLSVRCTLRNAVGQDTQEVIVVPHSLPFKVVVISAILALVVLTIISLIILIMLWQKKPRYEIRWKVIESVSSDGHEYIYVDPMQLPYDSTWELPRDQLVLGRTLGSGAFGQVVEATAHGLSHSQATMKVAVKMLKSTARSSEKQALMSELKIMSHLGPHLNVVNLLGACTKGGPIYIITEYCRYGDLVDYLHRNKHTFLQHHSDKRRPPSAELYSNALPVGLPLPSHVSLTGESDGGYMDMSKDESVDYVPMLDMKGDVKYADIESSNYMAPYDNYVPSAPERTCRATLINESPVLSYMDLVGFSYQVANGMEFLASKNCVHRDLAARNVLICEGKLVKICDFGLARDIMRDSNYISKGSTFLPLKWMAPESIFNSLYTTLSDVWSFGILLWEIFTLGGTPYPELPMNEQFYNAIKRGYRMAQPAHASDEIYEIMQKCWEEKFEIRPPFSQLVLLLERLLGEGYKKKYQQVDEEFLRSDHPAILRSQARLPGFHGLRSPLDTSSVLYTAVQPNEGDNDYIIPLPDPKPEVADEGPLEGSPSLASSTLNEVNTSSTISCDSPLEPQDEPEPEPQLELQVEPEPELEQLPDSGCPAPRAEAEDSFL
- Protocol: PDGF-R ELISA (U1242 cells)
- Format: cell-based
- Reported Conditions: ELISA Assay Results
Observation Type: IC50 (µM)
# unit: µM | format: bare number

Query: Kindly indicate its recorded IC50. Item: "COc1ccc(OC)c(C=C2C(=O)Nc3ccccc32)c1"
Result: 87.4

* * *

- System: FGFR
- Protocol: FGF ligand-induced BrdU incorporation, mitogenesis in 3T3/EGFR cells
- Format: cell-based
Observation Type: pIC50
Value format note: pIC50 is -log10 of concentration (mol/L); just state the number.

Compound | Recorded Number
Cc1c(CCC(=O)O)c[nH]c1C=C1C(=O)Nc2ccccc21 [SU5402] | 4.40
COC(=O)CCc1c(C)c[nH]c1C=C1C(=O)Nc2ccccc21 [SU5407] | 4.15
Cc1cnc(C=C2C(=O)Nc3ccccc32)s1 [SU5469] | 4.82

Then there is this compound:
Query: Please indicate recorded pIC50 of O=C1Nc2ccccc2C1=Cc1c[nH]cn1 [SU5473] measured with FGFR.
Result: 4.30
